System: Carrageenin Edema
Experiment: Carrageenin edema inhibitory action (rat hind paw swelling)
Type: in vivo, male rats (SLC-SD strain)
Settings: po, 3 h, 400 mg/kg orally, one hour before 0.1 ml of 0.5% carrageenin into right hind paw, measured three hours later, vs control group, read-out: Carrageenin Edema Inhibitory Rate (%)
Mark 0 for inhibition in vivo at 400 mg/kg values under 30%, and 1 for everything at or above.

>>> df
                              smiles_record  assigned_class
0         COc1ccc2cc(-c3nc(N)nc(N)n3)ccc2c1               1
1  Nc1nc(N)nc(-c2ccc3cc(OCc4ccccc4)ccc3c2)n1               1
2  Nc1nc(NC(=O)c2cccnc2)nc(-c2ccc(Cl)c3ccccc23)n1               0
3           Nc1nc(N)nc(-c2cc3ccccc3cc2Br)n1               1
4            Nc1nc(N)nc(-c2cc3ccccc3cc2F)n1               1
5  Nc1nc(NC(=O)c2cccnc2)nc(-c2ccc3cc(OCc4ccccc4)ccc3c2)n1               0
6  COc1cc2ccccc2cc1-c1nc(N)nc(NC(=O)c2cccnc2)n1               1
7  Nc1nc(NC(=O)c2cccnc2)nc(-c2ccc(Br)c3ccccc23)n1               0
